- Test system: UACC-62
- Method description: NCI tumour cell line growth inhibition, 48 h
Activity calls are given as the source filed them. No stated cut-off is given here; in the data, active = GI50 up to about 1.1 µM and inactive = higher.
Readout type: GI50

Cc1cccc2[nH]c3c(c(O)cc4[nH]c5cccc(C)c5c(=O)c43)c(=O)c12: > 10 µM (inactive)
CCCNC(=O)c1cc(NC(=O)c2cc(NC(=O)/C=C/c3ccccc3)c(OC)c(OC)c2)c(OC)c(OC)c1: 0.148 µM (active)
CCn1c2ccccc2c2ccc(C3C4C(=O)N(c5cccc6ccccc56)C(=O)C4ON3C(C(N)=O)c3ccccc3)cc21 (configuration not stated): 9.04 µM (inactive)
CCCCCCCCCCCCCC(=O)OC(/C=C/C(C)C)C(O)C(O)C(OC)C(=O)NC1CCCCN(C)C1=O (configuration not stated): 3.21 µM (inactive)
CCOP(=O)(OCC)C(C)(C)OC(=O)NC(F)(F)F: > 100 µM (inactive)
COc1cc2oc(-c3ccc(O)cc3)cc(=O)c2c(OC)c1OC: > 100 µM (inactive)
O=C(CN1CCOCC1)c1ccc2c(c1)oc(=O)n2CCN1CCCCC1: > 100 µM (inactive)
O=C(O)Cc1ccc(Oc2nc3ccccc3nc2-c2ccccc2)cc1: 24.9 µM (inactive)
CSC1=N/C(=C\c2ccccc2)C(=O)N1CN1CCOCC1: 34 µM (inactive)
CCOC(=O)[C@H]1Nc2ccc([N+](=O)[O-])cc2C2c3ccccc3CC21 (some centres not stated): 12.2 µM (inactive)
CCCC(=O)NC(Nc1ccc(S(=O)(=O)Nc2cc(C)on2)cc1)(C(=O)OCC)C(F)(F)F (configuration not stated): > 100 µM (inactive)
CCCCOP1(=O)CC(C)=C(Cl)C(C)(OC)C1 (configuration not stated): > 100 µM (inactive)

----------
- System: SN12C
- Method description: NCI tumour cell line growth inhibition, 48 h
Active and inactive are the calls of the source. No stated cut-off is given here; in the data, active = GI50 up to about 1.1 µM and inactive = higher.
Reported GI50 values for a set of molecules
Readout type: GI50

COc1ccc(CNc2cc(OC)c(OC)c(OC)c2)cc1: 7.71 µM (inactive)
CCOC(=O)C1=C(C)N(C2OC(COC(C)=O)C(OC(C)=O)C(OC(C)=O)C2OC(C)=O)C(=O)NC1c1ccccc1 (configuration not stated): > 100 µM (inactive)
C=C1CC(COc2ccc3ccc(=O)oc3c2)(c2ccccc2)OC1=O (configuration not stated): 2.73 µM (inactive)
O=C1CCC[C@]2(CCC[C@@H](O)C2)N1: > 100 µM (inactive)
CN1C(=O)N(c2ccccc2)C2(CCN(CC3COc4ccccc4O3)CC2)C1=O (configuration not stated): > 100 µM (inactive)
CC12CCCC(C(=O)O)(C1)[C@H](C(C)(C)C(=O)O)CC2 (some centres not stated): > 100 µM (inactive)
Cc1nn(-c2ccccc2)c(S)c1C(=O)c1ccccc1: 21.2 µM (inactive)
COc1ccc(/C=C2\CCC(C)C3=C(c4ccc(OC)c(OC)c4)C(C#N)=C(N)OC32)cc1OC (configuration not stated): 3.45 µM (inactive)
Cc1cc2c(C)n(Cc3ccc(Cl)cc3Cl)nc2c(C(=O)O)c1C: 63.4 µM (inactive)
O=C1C(Cl)=C(Cl)C(=O)C2=C1C1c3ccccc3C2c2ccccc21: > 100 µM (inactive)
COc1ccccc1/C=C1\Sc2scc(-c3cccc([N+](=O)[O-])c3)[n+]2C1=O: 2.88 µM (inactive)
O=C1C2Cc3ccccc3CN2C(=O)N1CCN1CCCC1 (configuration not stated): > 100 µM (inactive)
CCCCOP1(=O)CC(C)=C(Cl)C(C)(OC)C1 (configuration not stated): > 100 µM (inactive)
O=C(c1cc(Cl)cc(Cl)c1)N(C(=S)OC12CC3CC(CC(C3)C1)C2)c1ccccc1: 36.5 µM (inactive)
Cc1cccc(Nc2cc(Cl)nc(SCC(=O)O)n2)c1C: > 100 µM (inactive)
CC(=O)c1ccc(Oc2c3ccccc3nc3ccccc23)cc1: 5.08 µM (inactive)
CC(C)=NC(C(=O)O)C(C)(C)S (configuration not stated): > 100 µM (inactive)
COc1ccc2c(c1)[n+]([O-])c(C(=O)C/C(=N/OCCCc1ccccc1)C(=O)NC13CC4CC(CC(C4)C1)C3)c(C)[n+]2[O-]: > 100 µM (inactive)
CC(=O)OC1CC2C(C)(C)C(=O)C=CC2(C)C2CCC3(C)C(c4ccoc4)OC(=O)C4OC43C12C (configuration not stated): 4.21 µM (inactive)
CNC(=O)c1ccccc1[S+]1c2cccc3cccc(c23)C(=O)N1C (configuration not stated): > 100 µM (inactive)
COc1c2ccoc2cc2oc(=O)ccc12: > 100 µM (inactive)
CN(C)CC/C=C1\c2ccccc2Sc2ccc(Cl)cc21: 15.2 µM (inactive)

Where do these numbers come from? They come from ChEMBL document CHEMBL1201862.
